- procedure.summary: qHTS for Inhibitors of human tyrosyl-DNA phosphodiesterase 1 (TDP1): qHTS in cells in presence of CPT; note: nearly all actives have a fitted effect of over 55% in size
- test.settings: chicken DT40 Tdp1-/-;hTDP1 cells + 20 nM CPT, ATP luminescence, 48 h; series mostly up to 46.2 µM
Among all 420,000 compounds or so, about 50,000 (12%) were called active. Not shown: some 26% with an inconclusive outcome. Calls come from the whole dose curve; as a rule, active = well fitted inhibition curve with a large enough effect; inconclusive = small, poorly fitted or top-dose-only effect; inactive = flat fitted curve, though single readings scatter. The full list was thinned out, with actives kept by preference.
Possible outcomes: active, inactive

molecule=O=C(N/N=C/c1ccccc1O)/C(=C/c1ccccc1)CCO class_name=active
molecule="Oc1ccccc1C=NC1CCCCC1N=Cc1ccccc1O (stereo unspecified)" class_name=inactive
molecule=O=C(CCC(=O)Nc1ccccc1)N/N=C/c1ccccc1F class_name=inactive
molecule=O=C(NN=Cc1ccccc1O)NN=Cc1ccccc1O class_name=active
molecule=O=C(CCCCCNC(=O)c1ccccc1)N/N=C/c1ccccc1 class_name=inactive
molecule=C=CCOc1ccccc1/C=N/NC(=O)Cc1ccccc1 class_name=inactive
